Tested on: UO-31 renal
Experiment notes: NCI-60 one-dose screen, 48 h (100 = growth as untreated, 0 = no growth, -100 = all killed)
Measurement conditions: 10 µM unless noted
The panel holds about 83,000 compounds, 20% with a hit somewhere; the sample as a whole holds those more often.
Assignment: determine reported growth for the given molecules.
Answer in %, number only, no unit symbol.

In: # query: growth of entry COc1cc(/C=N/NC(=O)c2cnn3c2NC(c2ccccc2)C3)cc(OC)c1OC (stereo not drawn)
Out: 68.9

In: Param item: C(=C\c1ccccc1)/CN1CCN(C(c2ccccc2)c2ccccc2)CC1
Out: 70.5

In: Param item: CCCN(CCC)c1ccc(/C=C/c2ccc3cc(OCC)ccc3n2)cc1
Out: 71.8

====

Assignment: determine reported growth for the given compounds.
System: DU-145 prostate
Experiment notes: NCI-60 one-dose screen, 48 h (100 = growth as untreated, 0 = no growth, -100 = all killed)
Measurement conditions: 10 µM unless noted
This is part of a sample that, as a whole, favours compounds with a hit. Of some 83,000 tested, about 20% had one in any assay.
Answer in %, number only, no unit symbol.

In: # query: growth of entry CCN1CCN(C(=S)SCC(=O)Nc2nc3ccc(OC)cc3s2)CC1
Out: 106

In: Param item: CCCCC1COc2cccc3c(SCC(=O)N(C)c4cccc5ccccc45)cc[n+]1c23 (stereo not drawn)
Out: 105

In: Param item: Nc1nc(-c2ccnc(Cl)c2)nn1-c1nc2ccccc2s1
Out: 115

In: Param item: Cc1cc(O)cc2c1[C@H]1CC[C@]3(C)[C@@H](O)CC[C@H]3[C@@H]1C=C2
Out: 113

In: Param item: O=C(Nc1ccccc1O)c1ccc(NS(=O)(=O)c2cccc3cccnc23)cc1
Out: 49.1

In: Param item: CCCCC/C=C\C/C=C/CCCCCCCCNC(=O)Nc1ccc([N+](=O)[O-])cc1
Out: 47.3

In: Param item: COc1ccc(-c2c(-c3cc4c(c(OC)c3OC)OCO4)noc2N)cc1
Out: 12.2

In: Param item: CCCCC(O)Cn1ncc(C(=O)OCC)c1NC(=O)NCc1ccccc1C(F)(F)F (stereo not drawn)
Out: 102

In: Param item: O=C1c2ccccc2C(=O)c2c(Nc3ccc(CCO)cc3)ccc(O)c21
Out: 60.7

In: Param item: CCCCc1ccc(NC(=O)C(F)(F)F)cc1
Out: 100

In: Param item: CC(=O)Nc1ccc(Sc2ccc([N+](=O)[O-])o2)cc1
Out: 34.7

In: Param item: FC(F)(F)c1ccc2c(c1)n1cnnc1c1nncn21
Out: 118

In: Param item: CC(=O)OC[C@H](O)[C@@]1(O)CC[C@H]2[C@@H]3CCC4=CC(=O)CC[C@]4(C)[C@H]3[C@@H](O)C[C@@]21C
Out: 93.7

In: Param item: O=[N+]([O-])c1ccc(O)c2ncccc12
Out: 75.8

In: Param item: COc1ccc(C2OCC(C)(C)CO2)cc1OC
Out: 107

In: Param item: Cc1ccc(-c2c3c(N)c4c(nc3nc3c2c(C)nn3-c2ccccc2)CCCC4)cc1
Out: 105

In: Param item: O=C1c2ccccc2-c2cn(Cc3ccccc3)c3cccc(c23)C1c1cccnc1 (stereo not drawn)
Out: 60.7

In: Param item: O=c1[nH]c(=S)c2c(n1CCCO)CCC2
Out: 108

====

Assignment: determine reported growth for the given compounds.
Tested on: 786-0 renal
Experiment notes: NCI-60 one-dose screen, 48 h (100 = growth as untreated, 0 = no growth, -100 = all killed)
Measurement conditions: 10 µM unless noted
This is part of a sample that, as a whole, favours compounds with a hit. Of some 83,000 tested, about 20% had one in any assay.
Answer in %, number only, no unit symbol.

In: # query: growth of entry CCCCCCCC/C=C\CCCCCCCCOc1cccc(CC(=O)NCC[N+]2(C)CCCCC2)c1
Out: 90.4

In: Param item: COc1ccc(NC(=O)c2ccc3c(c2)nc(-c2ccc(Cl)cc2)n3-c2cc(C(C)(C)C)[nH]n2)cc1
Out: 87.6

In: Param item: FC(F)(F)c1cc(CNc2ncc(Br)c(Cl)n2)cc(C(F)(F)F)c1
Out: 90.4

====

System: SF-295 CNS
Experiment notes: NCI-60 one-dose screen, 48 h
Measurement conditions: 10 µM unless noted
About 83,000 compounds went through this panel and 20% of them were active in at least one assay; those are over-represented in the sample as a whole. Activity calls are given as the source filed them. Rule for the calls: active = growth percent below 10; inactive = the rest.
Field 'call' accepts label 1 = active, label 0 = inactive

In: Hi, sorry to bother you, what did the test record for CN1CCC(OC2c3ccccc3CCc3ccccc32)CC1 ?
Out: label 0

In: Param item: Cc1nn(-c2ccccc2)c2nc3nc4c(c(N)c3c(-c3ccc(Cl)cc3)c12)CCC4
Out: label 0

In: Param item: COc1ccc(-c2nc3sccn3c2/C=C/C(=O)c2cc(OC)c(OC)c(OC)c2)cc1OC
Out: label 1

In: Param item: FC(F)(F)Oc1ccc2c(c1)C[C@H]1C[C@@H](c3ccoc3)N2O1
Out: label 0

In: Param item: O=C(c1ccccc1)C(Br)C(Br)c1cccc([N+](=O)[O-])c1 (centres undefined)
Out: label 0

In: Param item: COc1cccc(C2C3=C(COC3=O)N(CCO)c3cc4c(cc32)OCO4)c1 (centres undefined)
Out: label 1

In: Param item: Cc1ccccc1-c1cc(-c2ccc(Br)s2)[nH]c(=O)c1C#N
Out: label 0

In: Param item: O=C1CC(c2ccsc2)c2snc(-c3ccc(Cl)cc3)c2N1 (centres undefined)
Out: label 0

In: Param item: Clc1ccc(Nc2nc(Nc3ccccc3)nc(Nc3ccc(-c4cc(-c5ccc(Cl)cc5)on4)cc3)n2)cc1
Out: label 0

In: Param item: COc1ccc(-c2c(-c3cc4c(c(OC)c3OC)OCO4)noc2N)cc1
Out: label 1

In: Param item: O=C(COc1ccc(/C=C2\CSc3ccccc3C2=O)cc1)c1ccc(Cl)cc1
Out: label 0

In: Param item: COc1ccc(NC(=O)c2ccc3c(c2)nc(-c2ccc(Cl)cc2)n3-c2cc(C(C)(C)C)[nH]n2)cc1
Out: label 0

In: Param item: CCN1CCN(C(=S)SCC(=O)Nc2nc3ccc(OC)cc3s2)CC1
Out: label 0

In: Param item: COc1cc2cc(Oc3ccc(NC(=O)Nc4cccc(C(F)(F)F)c4)cc3)c(C)nc2cc1OCCN1CCCCC1
Out: label 1

In: Param item: COc1cc(/C=C/C(=O)CC(=O)/C=C/c2cc(Br)c(OC)c(OC)c2)cc(Br)c1OC
Out: label 0

In: Param item: COC(=O)c1c2c(c(C)[n+]([O-])c1C)C(=O)C=C(NCc1cccc(Cl)c1)C2=O
Out: label 1

In: Param item: O=C1CCC(N2Cc3c(C#CCCCNC(=O)c4cc5c(o4)C(=O)c4ccccc4C5=O)cccc3C2=O)C(=O)N1 (centres undefined)
Out: label 1

In: Param item: COC(=O)/C=C1/CCC2C3CCC4=CC(=O)C(Br)CC4(C)C3C(=O)CC12C (centres undefined)
Out: label 0

In: Param item: CC(=O)Nc1ccc(S(=O)(=O)N/N=C\c2ccc(Cl)c(Cl)c2)cc1
Out: label 0

In: Param item: COc1cc(-c2nc(Nc3nc4ccccc4[nH]3)nc(N)c2C#N)cc(OC)c1OC
Out: label 0

In: Param item: COc1ccc(S(=O)(=O)ON=C2C=C(C)C(=O)C(C)=C2)cc1
Out: label 0

In: Param item: O=C(N/N=C(\CS(=O)(=O)c1ccccc1)c1cc2ccccc2oc1=O)c1ccccc1
Out: label 0

In: Param item: COc1ccc(-c2nc3sc(C)cn3c2/C=C/C(=O)c2cc(OC)c(OC)c(OC)c2)cc1
Out: label 0

In: Param item: COc1ccc(/C=C(\C#N)c2cc3ccccc3n2C)cc1
Out: label 1

====

System: 786-0 renal
Experiment notes: NCI-60 one-dose screen, 48 h (100 = growth as untreated, 0 = no growth, -100 = all killed)
Measurement conditions: 10 µM unless noted
The panel holds about 83,000 compounds, 20% with a hit somewhere; the sample as a whole holds those more often.
Label t for high-side growth (at or above 90%) and f for low-side growth (below it).

In: Please check the record O=C(Nc1ccccc1)Oc1cccc2cccnc12 and state if its growth is at or above 90%.
Out: t

In: Param item: CCN1CCN(C(=S)SCC(=O)Nc2nc3ccc(OC)cc3s2)CC1
Out: t

In: Param item: COc1nc2c(cc1S(=O)(=O)c1ccccc1)CCc1c-2cnn1-c1cccc(Cl)c1
Out: f

In: Param item: Cc1ccc(C2SCC(=O)N2NC(=O)c2[nH]c3ccc(F)cc3c2-c2ccccc2)cc1 (configuration not stated)
Out: t

In: Param item: Cc1nc2cc(Nc3nc(Nc4ccc(F)cc4)nc(N4CCN(C)CC4)n3)ccc2n1Cc1ccccc1
Out: f
